- test.system: Hypoxia-inducible factor 1-alpha (Homo sapiens) (UniProt Q16665)
- Sequence (Q16665 whole entry, looked up): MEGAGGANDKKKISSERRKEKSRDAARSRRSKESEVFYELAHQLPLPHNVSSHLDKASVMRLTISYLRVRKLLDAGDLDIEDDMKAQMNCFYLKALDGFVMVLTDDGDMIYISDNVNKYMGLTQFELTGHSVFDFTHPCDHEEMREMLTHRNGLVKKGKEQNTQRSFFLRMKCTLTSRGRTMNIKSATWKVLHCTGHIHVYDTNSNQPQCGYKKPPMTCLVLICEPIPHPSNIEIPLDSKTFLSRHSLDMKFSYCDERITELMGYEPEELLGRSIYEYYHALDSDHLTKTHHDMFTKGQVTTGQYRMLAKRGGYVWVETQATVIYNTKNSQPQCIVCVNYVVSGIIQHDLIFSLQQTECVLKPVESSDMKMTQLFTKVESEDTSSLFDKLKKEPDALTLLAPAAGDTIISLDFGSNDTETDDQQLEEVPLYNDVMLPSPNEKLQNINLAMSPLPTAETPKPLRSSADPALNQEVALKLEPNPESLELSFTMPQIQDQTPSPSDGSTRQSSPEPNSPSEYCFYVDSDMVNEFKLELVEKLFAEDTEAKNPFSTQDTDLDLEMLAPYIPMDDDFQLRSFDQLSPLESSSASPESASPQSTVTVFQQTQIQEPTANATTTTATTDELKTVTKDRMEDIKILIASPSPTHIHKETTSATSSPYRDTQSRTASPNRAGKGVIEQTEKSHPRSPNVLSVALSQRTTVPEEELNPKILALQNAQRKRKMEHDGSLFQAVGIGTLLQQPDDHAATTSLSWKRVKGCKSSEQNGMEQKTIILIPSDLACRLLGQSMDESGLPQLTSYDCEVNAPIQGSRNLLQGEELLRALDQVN
- experiment: HIF-2a and HIF-1a reporter inhibition panel, dose response, selectivity assay for HIF-2a inhibitor project, cell-based, luminescence (AID 651581)
- assay.context: HIF-1a, mean of runs
Active and inactive are the calls of the source. How the calls were made is not given here.
endpoint.label: IC50

See these solved cases before continuing.
O=C(Nc1ccc(N2CCOCC2)cc1)c1cnccn1 = inactive
S=C(c1ccc(-c2ccccc2)cc1)N1CCOCC1 = inactive
COc1cc(N2C(=O)C=CC2=O)c(OC)cc1Cl = 36.8 µM
CC(=O)Nc1ccc(Oc2sc(C(=O)c3ccccc3)c(N)c2C#N)cc1 = inactive
CCOC(=O)NC(=O)COC(=O)CCCSc1nc2ccccc2s1 = inactive

Data request: Given the molecule "Cc1nc2cc(-c3ccccc3)nn2c(C)c1CCC(=O)N1CCC2(CC1)OCCO2" , what is its reported IC50?
Data returned: 53 µM

---

- test.system: Endothelial PAS domain-containing protein 1 (Homo sapiens)
- experiment: HIF-2a and HIF-1a reporter inhibition panel, dose response, selectivity assay for HIF-2a inhibitor project, cell-based, luminescence (AID 651581)
- assay.context: HIF-2a, run 2
endpoint.label: IC50
Please report the result as a number followed by the unit.

Data request: Would you mind telling me what IC50 value was observed for "COCCn1c(C)cc(C(=O)CSc2nnc3ccccn23)c1C" ?
Data returned: 7.41 µM

Data request: Further, for "CC(=O)Nc1ccc(OC(=O)N2CCCCC2)cc1" ?
Data returned: 2.34 µM

Data request: Now consider Cc1nc2cc(-c3cccc(F)c3)nn2c(C)c1CCC(=O)NC(C)c1ccc2c(c1)OCCO2 (stereo unspecified) .
Data returned: 4.31 µM

Data request: Next record, please: Cc1nc2cc(-c3ccccc3)nn2c(C)c1CCC(=O)NC(C)c1ccc2c(c1)OCCO2 (stereo unspecified)
Data returned: 2.92 µM

Data request: Further, for CCOC(=O)C1CCCN(C(=O)COc2ccc(C(C)(C)C)cc2)CC1 (stereo unspecified) ?
Data returned: 7.77 µM

Data request: Can you check "COc1ccc(-n2nc3ccc(N)cc3n2)cc1" next?
Data returned: 14.9 µM

Data request: Try this compound next: "CCC(=O)Nc1cccc(C(=O)c2ccc(C)c(C)c2)c1"
Data returned: 1.57 µM

Data request: Would you kindly repeat that for "COc1ccc(CNC(=O)CCc2c(C)nc3cc(-c4ccccc4OC)nn3c2C)cc1" ?
Data returned: 8.49 µM

Data request: Another compound to check: "Cc1nc(SCc2cccc(C(=O)O)c2)nc2c1CCCC2"
Data returned: 0.826 µM

Data request: One more compound: "CCOC(=O)C1CCN(Cc2cc(=O)oc3c(C)c(C)ccc23)CC1"
Data returned: 7.07 µM

Data request: Now give it for "COc1cc(/C=N/O)ccc1OCc1ccc(C(=O)O)cc1" too.
Data returned: 3 µM

---

- test.system: Endothelial PAS domain-containing protein 1 (Homo sapiens) (UniProt Q99814)
- experiment: HIF-2a and HIF-1a reporter inhibition panel, dose response, selectivity assay for HIF-2a inhibitor project, cell-based, luminescence (AID 651581)
- assay.context: HIF-2a, run 1
Could you please mark Met for values of IC50 below 5 µM and Not met for values at or above it?

Data request: Determine whether this molecule shows IC50 lower than 5 µM (ties excluded): "CC(C)c1ccc(/C=N/Nc2ccc(C(=O)O)cc2)cc1"
Data returned: Not met

Data request: Further, for "O=Cc1ccc(-c2cccs2)s1" ?
Data returned: Not met

Data request: Please give the result for "CN(C)S(=O)(=O)c1cccc(NC(=O)CSc2cccc3cccnc23)c1" too.
Data returned: Not met

Data request: Proceed to "COC(=O)CCCNC(=O)CCc1nnc(-c2ccc(-c3ccccc3)cc2)o1"
Data returned: Met

Data request: How about this molecule: "CCOC(=O)C1CCN(C(=O)Nc2ccc3snnc3c2)CC1"
Data returned: Not met

Data request: Please give the result for "C/C(=N\NC(=O)c1n[nH]c2c1CCC2)c1cccs1" too.
Data returned: Met

Data request: And then "CCOC(=O)c1cccc(NC(=O)/C=C/c2ccc3c(c2)OCO3)c1" , what is it?
Data returned: Not met

Data request: Queued: "CCOc1ccc(-c2cc(CCCC(=O)Nc3cc(OC)ccc3OC)no2)cc1"
Data returned: Met

Data request: Try "Cn1ncc2c(O/N=C(\N)c3ccc(C(C)(C)C)cc3)ncnc21" next.
Data returned: Met

Data request: Then what about the molecule "CCOc1ccc2nc(SCc3ccc(CC(=O)O)cc3)c(C#N)cc2c1" ?
Data returned: Not met

Data request: Another: "O=C(Nc1ccc(NC(=O)c2ccco2)cc1)c1ccc2c(c1)OCCO2"
Data returned: Not met

Data request: Note, next up: "O=C(CSc1nnc(-c2ccc(Br)cc2)o1)Nc1cccc(C(=O)O)c1"
Data returned: Not met

Data request: Entry "Cc1ccc(C(=O)c2cccc(N)c2)cc1C" please
Data returned: Met

Data request: // repeat for "O=C1C=CC(=O)N1c1ccccc1N1C(=O)C=CC1=O" and report
Data returned: Not met

Data request: And the next one, "CC(=O)Nc1ccc(OS(=O)(=O)c2ccc(C)cc2C)cc1" ?
Data returned: Met

Data request: Note, next up: "CC(C)(C)c1ccc(-c2noc(CCC(N)=O)n2)cc1"
Data returned: Met

Data request: Now try "O=C(CCCSc1nc2ccccc2s1)NC1=NCCS1" .
Data returned: Not met

Data request: Same for "COc1ccc(/C=C2\SC(=O)N(CCNC(=O)Cn3[nH]c(=O)c4ccccc4c3=O)C2=O)cc1"
Data returned: Not met

Data request: Now the same for "CCOC(=O)c1cc(-c2csc(-c3ccc(C(C)(C)C)cc3)n2)on1"
Data returned: Met

---

- test.system: Hypoxia-inducible factor 1-alpha (Homo sapiens) (UniProt Q16665)
- experiment: HIF-2a and HIF-1a reporter inhibition panel, dose response, selectivity assay for HIF-2a inhibitor project, cell-based, luminescence (AID 651581)
- assay.context: HIF-1a, run 2
endpoint.label: IC50

Data request: Any idea what IC50 was measured for "CC(=O)Nc1ccc(Oc2sc(C(=O)c3ccccc3)c(N)c2C#N)cc1" ?
Data returned: 28.5 µM

Data request: Same read-out for "COc1cc(N2C(=O)C=CC2=O)c(OC)cc1Cl" ?
Data returned: 40.4 µM

Data request: Could you do the same for "N#Cc1c(NC(=O)CSc2ncn[nH]2)sc2c1CCCCC2" , please?
Data returned: 1.47 µM

Data request: Param item: "Cc1c(CCC(=O)N[C@@H](CC(C)C)C(=O)O)c(=O)oc2cc3oc4c(c3cc12)CCCC4"
Data returned: 4.05 µM

Data request: Another molecule to check: "Cc1ccc(S(=O)(=O)ON2C(=O)c3ccccc3C2=O)c(C)c1"
Data returned: > 99 µM

Data request: Try this molecule next: "COc1cccc(NC(=O)c2nc(S(C)(=O)=O)ncc2Cl)c1"
Data returned: 28.2 µM

Data request: Entry "O=C(O)c1cccc(CSc2nnc(-c3ccc(Cl)cc3)o2)c1" please
Data returned: > 99 µM

Data request: Further, for "Cc1nn(-c2ccccc2Cl)c(Cl)c1/C=N/Nc1cccc(C(=O)O)c1" ?
Data returned: > 99 µM

Data request: And "Cc1ccc(S(=O)(=O)c2ncccc2[N+](=O)[O-])cc1" ?
Data returned: 23 µM

Data request: What would you report for "CC(C)(C)c1ccc(-c2noc(CCC(=O)Nc3cccnc3)n2)cc1" ?
Data returned: 49.5 µM

Data request: Record: "N#C/C(=C\c1ccccc1)C(=O)N(c1ccccn1)C1CCCCC1"
Data returned: 24.7 µM

---

Exercise: for every item that follows, state its recorded pIC50.
- test.system: Endothelial PAS domain-containing protein 1 (Homo sapiens) (UniProt Q99814)
- experiment: HIF-2a and HIF-1a reporter inhibition panel, dose response, selectivity assay for HIF-2a inhibitor project, cell-based, luminescence (AID 651581)
- assay.context: HIF-2a, run 1
When answering, recall that pIC50 equals minus log10 of the concentration in mol/L, and write that number alone.

Data request: Need pIC50, item "Cc1ccc(S(=O)(=O)Nc2cccc3cccnc23)c([N+](=O)[O-])c1"
Data returned: 5.41

Data request: Further, for "O=C(O)c1ccc(N/N=C/c2ccc(C(F)(F)F)cc2)cc1" ?
Data returned: 5.02

Data request: Do the same for "COCCn1c(C)cc(C(=O)CSc2nnc3ccccn23)c1C" please
Data returned: 5.13

---

- test.system: Endothelial PAS domain-containing protein 1 (Homo sapiens) (UniProt Q99814)
- experiment: HIF-2a and HIF-1a reporter inhibition panel, dose response, selectivity assay for HIF-2a inhibitor project, cell-based, luminescence (AID 651581)
- assay.context: HIF-2a, mean of runs
Active and inactive are the calls of the source. The rule behind the calls is not given here.
The categories you may choose from are 1 = active, 0 = inactive

Data request: Dear colleague, could you share the recorded outcome for "COc1ccc(CNC(=O)CCc2c(C)nc3cc(-c4ccccc4OC)nn3c2C)cc1" when you have a moment?
Data returned: 1

Data request: Check "Cc1c(CCC(=O)N[C@@H](CC(C)C)C(=O)O)c(=O)oc2cc3oc4c(c3cc12)CCCC4" too.
Data returned: 1

Data request: Now this one: "Cc1cc(C)c(C)c(S(=O)(=O)ON2C(=O)c3ccccc3C2=O)c1C"
Data returned: 1

Data request: Next: "COc1ccc(OCc2cccc(C(=O)O)c2)cc1"
Data returned: 1

Data request: Also, "CCOC(=O)NC(=O)COC(=O)CCCSc1nc2ccccc2s1" please.
Data returned: 1

Data request: Would you kindly repeat that for "COc1cc(/C=C/[N+](=O)[O-])ccc1O" ?
Data returned: 0

Data request: Would you kindly repeat that for "Cc1ccc(S(=O)(=O)Nc2cccc3cccnc23)cc1" ?
Data returned: 1

Data request: Same lookup for "Cc1c(CCC(=O)O)c(=O)oc2cc3oc4c(c3cc12)CCCC4" , please.
Data returned: 1

Data request: # repeat for "CCOC(=O)Cc1csc(NC(=S)NC(=O)c2ccccc2)n1"
Data returned: 1

Data request: Can you handle "CC(C)C[C@@H](N)c1nnc(SCC(=O)c2ccc(Cl)cc2)o1" next?
Data returned: 1

Data request: Same thing, different compound: "C(=NNc1ccc2ccccc2n1)c1ccccn1"
Data returned: 1

meta.source: PubChem BioAssay AID651581
